Test system: A549
Experiment: Induction of apoptosis in human A549 cells assessed as nuclear fragmentation at IC50 by fluorescence microscopy
Type: functional, cell-based
The source made the active and inactive calls. The calls are words filed in the database; no cut-off is given here.
observable: Activity

[
  {
    "cpdSmiles": "COc1cc2c(cc1OC)CN(CC(=O)Nc1ccc3c(c1)/C(=C\\c1ccccn1)C(=O)N3)CC2",
    "Activity": "Active"
  },
  {
    "cpdSmiles": "COc1cc2c(cc1OC)CN(CC(=O)Nc1ccc3c(c1)/C(=C\\c1nccn1C)C(=O)N3)CC2",
    "Activity": "Active"
  },
  {
    "cpdSmiles": "COc1cc2c(cc1OC)CN(CC(=O)Nc1ccc3c(c1)/C(=C/c1cnc[nH]1)C(=O)N3)CC2",
    "Activity": "Active"
  },
  {
    "cpdSmiles": "COc1cc2c(cc1OC)CN(CC(=O)Nc1ccc3c(c1)/C(=C/c1cccs1)C(=O)N3)CC2",
    "Activity": "Active"
  }
]

Turning now to a further record.
Look up Activity of COc1cc2c(cc1OC)CN(CC(=O)Nc1ccc3c(c1)CC(=O)N3)CC2 and report it.
Active
